Data provenance is the supplement of paper PMC9170038.

# apparent KD of MS2 coat protein per entry
system: MS2 coat protein; assay: apparent KD of MS2 coat protein; designed switch direction (-1 OFF switch, 1 ON switch): 1; higher = weaker reporter binding; settings: input ligand: FMN 200 uM
// return numeric value only (unit: nM, not printed)

For orientation, consider the following solved cases.
SEQUENCE_INPUT	UNITS_LABEL	apparent KD of MS2 coat protein
AAACACAUGAGGAUCACCCAUGUAGCACCAUUGAGGCGCACAUAGGAUAUCCGGUCCAAAAGACCGGAGAAGGGUGAAAGAAAA [Veandi] (Eterna round: R96, puzzle: Same State NG 3)	nM	59.7
AACUGUUUCUGAGGAUAUCAGUAGUAUGCCAAUUGAGAAGGCAGUACAUGAGGAUCACCCAUGUUGUGGUUUGAUAGAAUGAUA [JR_SSNG1_Sub003] (Eterna round: R96, puzzle: Same State NG 1)	nM	182
ACCCGCGGGCCACAUGAGGAUCACCCAUGUGACCGGUGAUCCAAGGAUAUACGUGUGAUAGACGCGUAGAAGGUGGCCAAAACU [Rirazaedat] (Eterna round: R96, puzzle: Same State NG 3)	nM	127
GGUCGGACAAAACAUGAGGAUCACCCAUGUCCGGAAACGGCAUAGGAUAUCUGUCCGAAAAGGUCAGAGAAGGGUGAACCGACC [Fiskers NG3ss - 70] (Eterna round: R96, puzzle: Same State NG 3)	nM	91.2

Record CCAACGUACAAUUUAGAUCUACAUGAGGAUCACCCAUGUACGGAGGAUAUCAGCUCGAUUAGAGCUGAGAAGGCCGAAUUAAUU [SSNG3/2-A2] (Eterna round: R96, puzzle: Same State NG 3) . Reported apparent KD of MS2 coat protein: 65.7

---

test system: MS2 coat protein; assay: apparent KD of MS2 coat protein; higher = weaker reporter binding; settings: Eterna round: R107; input ligand: theophylline 2 mM
READOUT_KIND: apparent KD of MS2 coat protein (nM)
// return numeric value only (unit: nM, not printed)

SEQUENCE_INPUT	apparent KD of MS2 coat protein [nM]
CUGCCAUGCAGAGAUACCAGUGAGCUCAGAACAUGAGGAUCACCCAUGUACGCCGCCGAUCACCCUUGGCAGCUCUGCAUGGCAG [%*#)(]	11.4
AAUUCCUCACAUGAGGAUCACCCAUGUGAAGGAGCGCCGAAUAAGGCAGGUAGGUCGCACAUGGAAACCGCUACGAAAGUAGUAA [XArg-A 2 NuV2]	22.1
GGGUGGUAGGCGGCCGCCACUGAUUUUUAUUUAUAGAUGACAUGAGGAUCACCCAUGUUGAUAUGCAGGACCGGGCCUGUUGUUG [aaaP]	15.4
GAACAGUCGGACAUGAGGAUCACCCAUGUGCGAGGACCGGUACGGCCGCCACUCGACAAGGGCGGUCCCGAAGCGAACAUACGCG [Cecearla]	34.4
UCGCUCUGGGUGAGAUCCGGAGAUGUGGAAGGAGCGCUGGUUCCAGCAGGUAGGUCGCCAACGGACAUGAGGAUCACCCAUGUAC [Same State - Arginine A (Freestyle 13)]	70.4

Tested system MS2 coat protein; apparent KD of MS2 coat protein recorded for CCCAGUCAUAACAAAGGAAAUAUACUCGAAGGAGCGUCAUAGUAGGCAGGUAGGUCGCGAGACAUGAGGAUCACCCAUGUAGAGA [swwvmullin] was 75.1

---

tested on: K4 kissing-loop RNA reporter; test: apparent KD of K4 kissing-loop reporter; higher = weaker reporter binding; settings: Eterna round: R107; input ligand: theophylline 20 uM;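 further: bound reporter read as fluorescence of individual clusters on recovered sequencing chips by microscopy, with normalized cluster intensities fitted with a binding model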
# apparent KD of K4 kissing-loop reporter per entry
// return numeric value only (unit: nM, not printed)

For orientation, consider the following solved cases.
SEQUENCE_INPUT	READOUT_KIND	VAL
UGUACCGAGUCAGGAUAUGAACGACUGACAAAAGUCGGUCGAAUAUCCAGUGAUGUUGGAAAUAAAUCAGAAGGGACUUGGUACU [FmnBS 15 #SwitchBubble #StaticStem]	apparent KD of K4 kissing-loop reporter	840
UUUAAAUAUAGUGAUGUUAUAUAACAAUGACGAGGACCGGUACGGCCGCCACUCGAGAGAGAUAAUGGUCGUUCGAAUCGAACGC [AstrosSSTryA#6]	apparent KD of K4 kissing-loop reporter	574

Now for another entry.
Record GCCGUACGCAUGGAUACCAGCCGACCUGAUGUUAAGCUGGUGCCGUAGUGAUGUUACGAAGGCCCUUGGCAGCCAUGCGUACGGC . Reported apparent KD of K4 kissing-loop reporter: 176

---

test system: MS2 coat protein; assay: apparent KD of MS2 coat protein; higher = weaker reporter binding; conditions: Eterna round: R107; input ligand: theophylline 2 mM
Decide by apparent KD of MS2 coat protein: equal to or exceeding 40 nM means true (1), less means false (0).

See these solved cases before continuing.
In [3]: df
Out[3]:
                             sequence_input       measured_on  class_label
0  AACAUGAGGAUCACCCAUGUCCCAUGUGAACGAGGACCGGUACGGCCGCCACUCGAAUGAGGCGGCACAUGAGGAUCACCCACAU [whbob_SS_trypto A_2s11]  MS2 coat protein     true (1)
1  UCAUAAGUACCGGUCCUCAGAUCCUCAUGACGAGGACCGGUACGGCCGCCACUCGAAACAUGAGGAUCACCCAUGUAAUAACAUU [Brourdmod23]  MS2 coat protein    false (0)
2  GGUUGGUAUAUAUAUAUAUUGAUUACUGAAGGAGCGGGAAAUAACCCAGGUAGGUCGCAGAGAUCCACAUGAGGAUCACCCAUGU [!0.G]  MS2 coat protein     true (1)
3  AUUAUAGUUUAUAAGGAAAUUGAAACAGAAGGAGCGUGAGUAAUCACAGGUAGGUCGCUGGUAGUACAUGAGGAUCACCCAUGUU [JR_Nu_SSArginiA_Sub019]  MS2 coat protein    false (0)
4  UGGUACAUGGCGGCCGCCACUUCACGUAAAAUAAAAACGUGAGGAUCACCCACGUAAUAAGUUGGGAGGACCGGGUCAUGUACCU  MS2 coat protein     true (1)

Query sequence follows.
Prompt line: API: above_or_equal(metric=apparent KD of MS2 coat protein, cutoff=40 nM) for item GACCGGUUAUAGCGCGAUUGUCUUGUGGAAGGAGCGCAGAGGGCUGCAGGUAGGUCGCCACAUGAGGAUCACCCAUGUCAGGAAA [Biraesge]
Response line: false (0)

---

tested on: MS2 coat protein; assay: apparent KD of MS2 coat protein; designed switch direction (-1 OFF switch, 1 ON switch): -1; higher = weaker reporter binding; settings: input ligand: none
# apparent KD of MS2 coat protein per entry
// return numeric value only (unit: nM, not printed)

SEQUENCE_INPUT	READOUT_KIND	VAL
ACUAGUCUAAAGGAUAUGGACCUGAACAAAUGGCCAGAAGGUUAAACAUGAGGAUCACCCAUGUAGGUGCGCCA [Eternabot (Original) Solution 18] (Eterna round: R97, puzzle: Exclusion 6)	apparent KD of MS2 coat protein	27.2

Tested system MS2 coat protein; apparent KD of MS2 coat protein recorded for AACUCACAUGAGGAUCACCCAUGUGAGGAUAUGGAUUCGCUGGCCGUAGCCAGUGGAUCCAGAAGGCGCAUGAU [JL-ex1-4.10] (Eterna round: R97, puzzle: Exclusion 1) was 21.2

Tested system MS2 coat protein; apparent KD of MS2 coat protein recorded for UGGUCACAUGAGGAUCACCCAUGUCAGGAUAUCGUCACUGGAGCUUCGGCUCCAGUGACGAGAAGGGAUAUAAU [E1/9-A1] (Eterna round: R97, puzzle: Exclusion 1) was 57.8

---

system: MS2 coat protein; experiment: apparent KD of MS2 coat protein; higher = weaker reporter binding; settings: Eterna round: R107; input ligand: none
Decide by apparent KD of MS2 coat protein: equal to or exceeding 20 nM means TRUE, less means FALSE.

SEQUENCE_INPUT	CLASS_LABEL
ACAUGAGGAUCACCCAUGUUAAACACAGAAGGAGCGUGAAGGAACACAGGUAGGUCGCUGUACUUAUUGAGUAUUCACUCGAUAC [JR_Nu_SSArginiA_Sub028]	FALSE
AAAUAAAUACAUGAGGAUCACCCAUGUGAAGGAGCGGCCGUUAGGCCAGGUAGGUCGCACAUGAAAGGGAAGCGAAAGAAAUAAU [MAT - Exclusion Arginine A - Mod of Eli - D7]	FALSE
CCCAGUUAUAACAAAGGAAUUAUACUCGAAGGAGCGUCAUAGUAGGCAGGUAGGUCGCGAGACAUGAGGAUCACCCAUGUAGAGA [k,lmullin]	TRUE
UAUCGACACUGAAGGAGCGAGAUGACAAACAUGAGGAUCACCCAUGUUAUGGGUUGUUAAUCUCAGGUAGGUCGCAGUGGUCGCA [Same State Arginine B GF 18]	TRUE
UGUAUGUGAUCUGAUACCAGAGUUGAUAACCUGAGGAUCACCCUGGUAAGGCGAAAGCCACUCCCUUGGCAGCAGAUCGCAUACU	TRUE

Query sequence follows.
Prompt line: API: above_or_equal(metric=apparent KD of MS2 coat protein, cutoff=20 nM) for item UUUAAGAACCGAAGGAGCGCCAGAAAUAAGAACGCUACAUGAGGAUCACCCAUGUAAUAAGGGCAGGUAGGUCGCGGAAUUUAAA [last]
Response line: TRUE
